# Test system: Staphylococcus aureus
# protocol.notes: Antibacterial activity against methicillin resistant Staphylococcus aureus 4591/A assessed as reduction in microbial growth incubated for 24 hrs by microdilution assay
# Assay type: functional
Catalogue of molecules with associated MIC
observable: MIC (µg/mL)

- molecule: "CC(C)COP(=O)(CCN(CCCN)CCCN)OCCCCCCCCOP(=O)(CCN(CCCN)CCCN)OCC(C)C.Cl.Cl.Cl.Cl.Cl.Cl (stereo unspecified)"
  system.name: "Staphylococcus aureus"
  observable: "MIC"
  quantity.unit: "µg/mL"
  result.comparator: ">"
  experimental.result: 128
- molecule: "CCCCC/C=C\\CCOP(=O)(CCN(CCCN)CCCN)OCCCCCCOP(=O)(CCN(CCCN)CCCN)OCC/C=C\\CCCCC.Cl.Cl.Cl.Cl.Cl.Cl (stereo unspecified)"
  system.name: "Staphylococcus aureus"
  observable: "MIC"
  quantity.unit: "µg/mL"
  result.comparator: "="
  experimental.result: 1
- molecule: "CCC/C=C\\CCOP(=O)(CCN(CCCN)CCCN)OCCCCCOP(=O)(CCN(CCCN)CCCN)OCC/C=C\\CCC.Cl.Cl.Cl.Cl.Cl.Cl (stereo unspecified)"
  system.name: "Staphylococcus aureus"
  observable: "MIC"
  quantity.unit: "µg/mL"
  result.comparator: "="
  experimental.result: 32
- molecule: "CC/C=C\\CCCOP(=O)(CCN(CCCN)CCCN)OCCCCCCOP(=O)(CCN(CCCN)CCCN)OCCC/C=C\\CC.Cl.Cl.Cl.Cl.Cl.Cl (stereo unspecified)"
  system.name: "Staphylococcus aureus"
  observable: "MIC"
  quantity.unit: "µg/mL"
  result.comparator: "="
  experimental.result: 16
- molecule: "CCC/C=C\\CCOP(=O)(CCN(CCCN)CCCN)OCCCOP(=O)(CCN(CCCN)CCCN)OCC/C=C\\CCC.Cl.Cl.Cl.Cl.Cl.Cl (stereo unspecified)"
  system.name: "Staphylococcus aureus"
  observable: "MIC"
  quantity.unit: "µg/mL"
  result.comparator: "="
  experimental.result: 32
- molecule: "CC(C)COP(=O)(CCN(CCCN)CCCN)OCCCCCCCCCCCCOP(=O)(CCN(CCCN)CCCN)OCC(C)C.Cl.Cl.Cl.Cl.Cl.Cl (stereo unspecified)"
  system.name: "Staphylococcus aureus"
  observable: "MIC"
  quantity.unit: "µg/mL"
  result.comparator: "="
  experimental.result: 4

----------
# Test system: Staphylococcus aureus
# protocol.notes: Antibacterial activity against Staphylococcus aureus ATCC 29213 = CCM 4223 assessed as inhibition of bacterial growth incubated for 24 hrs in presence of BSA by microdilution assay
# Assay type: functional

- compound: "CC/C=C\\CCCOP(=O)(CCN(CCCN)CCCN)OCCCOP(=O)(CCN(CCCN)CCCN)OCCC/C=C\\CC.Cl.Cl.Cl.Cl.Cl.Cl (configuration not stated)"
  result.comparator: ">"
  MIC / µg/mL: 128
- compound: "CC/C=C\\CCCOP(=O)(CCN(CCCN)CCCN)OCCCCCOP(=O)(CCN(CCCN)CCCN)OCCC/C=C\\CC.Cl.Cl.Cl.Cl.Cl.Cl (configuration not stated)"
  result.comparator: "="
  MIC / µg/mL: 64
- compound: "Cl.Cl.Cl.Cl.Cl.Cl.NCCCN(CCCN)CCP(=O)(OCCCOP(=O)(CCN(CCCN)CCCN)OCC1CCCC1)OCC1CCCC1 (configuration not stated)"
  result.comparator: ">"
  MIC / µg/mL: 128
- compound: "CCCCCCCCCOP(=O)(CCN(CCCN)CCCN)OCCc1ccc([N+](=O)[O-])cc1.Cl.Cl.Cl (configuration not stated)"
  result.comparator: "="
  MIC / µg/mL: 64
- compound: "Cl.Cl.Cl.Cl.Cl.Cl.NCCCN(CCCN)CCP(=O)(OCCCCCCOP(=O)(CCN(CCCN)CCCN)OCCc1ccccc1)OCCc1ccccc1 (configuration not stated)"
  result.comparator: ">"
  MIC / µg/mL: 128
- compound: "CCC/C=C\\CCOP(=O)(CCN(CCCN)CCCN)OCCCOP(=O)(CCN(CCCN)CCCN)OCC/C=C\\CCC.Cl.Cl.Cl.Cl.Cl.Cl (configuration not stated)"
  result.comparator: "="
  MIC / µg/mL: 64
- compound: "CCCCCCCCCOP(=O)(CCN(CCCN)CCCN)OCCOCc1ccccc1.Cl.Cl.Cl (configuration not stated)"
  result.comparator: ">"
  MIC / µg/mL: 128

----------
# protocol.notes: Gradient chromatographic hydrophobicity index of the compound at pH 3.7 by HPLC analysis
# Assay type: ADME
Catalogue of compounds with associated CHI

- compound: "CCCCCCOP(=O)(CCN(CCCN)CCCN)OCCCCCCCCCCOP(=O)(CCN(CCCN)CCCN)OCCCCCC.Cl.Cl.Cl.Cl.Cl.Cl (configuration not stated)"
  CHI: 34.8
- compound: "CCCCCCCCOP(=O)(CCN(CCCN)CCCN)OCCCCCCCCCCOP(=O)(CCN(CCCN)CCCN)OCCCCCCCC.Cl.Cl.Cl.Cl.Cl.Cl (configuration not stated)"
  CHI: 40.6
- compound: "CCCCCOP(=O)(CCN(CCCN)CCCN)OCCCCCCCCCCCCOP(=O)(CCN(CCCN)CCCN)OCCCCC.Cl.Cl.Cl.Cl.Cl.Cl (configuration not stated)"
  CHI: 34.7
- compound: "CCCCCCCOP(=O)(CCN(CCCN)CCCN)OCCCCCCCOP(=O)(CCN(CCCN)CCCN)OCCCCCCC.Cl.Cl.Cl.Cl.Cl.Cl (configuration not stated)"
  CHI: 33.9
- compound: "Cl.Cl.Cl.Cl.Cl.Cl.NCCCN(CCCN)CCP(=O)(OCCCCCCOP(=O)(CCN(CCCN)CCCN)OCC1CCCC1)OCC1CCCC1 (configuration not stated)"
  CHI: 14.8
- compound: "CCCCCCOP(=O)(CCN(CCCN)CCCN)OCCCCCCCCOP(=O)(CCN(CCCN)CCCN)OCCCCCC.Cl.Cl.Cl.Cl.Cl.Cl (configuration not stated)"
  CHI: 31.4
- compound: "CCCCCOP(=O)(CCN(CCCN)CCCN)OCCCCCCCCCCOP(=O)(CCN(CCCN)CCCN)OCCCCC.Cl.Cl.Cl.Cl.Cl.Cl (configuration not stated)"
  CHI: 31.3
- compound: "CCCCCCCCOP(=O)(CCN(CCCN)CCCN)OCCCCOP(=O)(CCN(CCCN)CCCN)OCCCCCCCC.Cl.Cl.Cl.Cl.Cl.Cl (configuration not stated)"
  CHI: 35.3
- compound: "CCCCC/C=C\\CCOP(=O)(CCN(CCCN)CCCN)OCCCOP(=O)(CCN(CCCN)CCCN)OCC/C=C\\CCCCC.Cl.Cl.Cl.Cl.Cl.Cl (configuration not stated)"
  CHI: 36.2
- compound: "Cl.Cl.Cl.Cl.Cl.Cl.NCCCN(CCCN)CCP(=O)(OCCCCCOP(=O)(CCN(CCCN)CCCN)OCC12CC3CC(CC(C3)C1)C2)OCC12CC3CC(CC(C3)C1)C2 (configuration not stated)"
  CHI: 34.1
- compound: "CCCCCOP(=O)(CCN(CCCN)CCCN)OCCCCCCCCCCCCCCOP(=O)(CCN(CCCN)CCCN)OCCCCC.Cl.Cl.Cl.Cl.Cl.Cl (configuration not stated)"
  CHI: 38.1
- compound: "CCCCCOP(=O)(CCN(CCCN)CCCN)OCCCCCCCCOP(=O)(CCN(CCCN)CCCN)OCCCCC.Cl.Cl.Cl.Cl.Cl.Cl (configuration not stated)"
  CHI: 27.5
- compound: "CCCCOP(=O)(CCN(CCN)CCN)OCCCCCCCCCCOP(=O)(CCN(CCN)CCN)OCCCC.Cl.Cl.Cl.Cl.Cl.Cl (configuration not stated)"
  CHI: 34.2
- compound: "CCCC/C=C\\CCOP(=O)(CCN(CCCN)CCCN)OCCCCCOP(=O)(CCN(CCCN)CCCN)OCC/C=C\\CCCC.Cl.Cl.Cl.Cl.Cl.Cl (configuration not stated)"
  CHI: 33.3
- compound: "CCCCC/C=C\\CCOP(=O)(CCN(CCCNC(=N)N)CCCNC(=N)N)OCCCCCOP(=O)(CCN(CCCNC(=N)N)CCCNC(=N)N)OCC/C=C\\CCCCC.Cl.Cl.Cl.Cl.Cl.Cl (configuration not stated)"
  CHI: 36.4
- compound: "CC/C=C\\CCCOP(=O)(CCN(CCCN)CCCN)OCCCCCCOP(=O)(CCN(CCCN)CCCN)OCCC/C=C\\CC.Cl.Cl.Cl.Cl.Cl.Cl (configuration not stated)"
  CHI: 2.4
- compound: "CCCCCCOP(=O)(CCN(CCN)CCN)OCCCCCCCCOP(=O)(CCN(CCN)CCN)OCCCCCC.Cl.Cl.Cl.Cl.Cl.Cl (configuration not stated)"
  CHI: 38.6
- compound: "CCCCCCCCOP(=O)(CCN(CCCN)CCCN)OCCCCCCOP(=O)(CCN(CCCN)CCCN)OCCCCCCCC.Cl.Cl.Cl.Cl.Cl.Cl (configuration not stated)"
  CHI: 36.9
- compound: "CCCCOP(=O)(CCN(CCCN)CCCN)OCCCCCCCCCCCCCCOP(=O)(CCN(CCCN)CCCN)OCCCC.Cl.Cl.Cl.Cl.Cl.Cl (configuration not stated)"
  CHI: 35.2
- compound: "CCCCC/C=C\\CCOP(=O)(CCN(CCCN)CCCN)OCCCCCOP(=O)(CCN(CCCN)CCCN)OCC/C=C\\CCCCC.Cl.Cl.Cl.Cl.Cl.Cl (configuration not stated)"
  CHI: 37.2
- compound: "CCCCOP(=O)(CCN(CCCN)CCCN)OCCCCCCCCCCCCOP(=O)(CCN(CCCN)CCCN)OCCCC.Cl.Cl.Cl.Cl.Cl.Cl (configuration not stated)"
  CHI: 31.4
- compound: "CCCCCOP(=O)(CCN(CCN)CCN)OCCCCCCCCOP(=O)(CCN(CCN)CCN)OCCCCC.Cl.Cl.Cl.Cl.Cl.Cl (configuration not stated)"
  CHI: 34.7
- compound: "CCCCCCOP(=O)(CCN(CCCN)CCCN)OCCCCCCCCCCCCCCOP(=O)(CCN(CCCN)CCCN)OCCCCCC.Cl.Cl.Cl.Cl.Cl.Cl (configuration not stated)"
  CHI: 40.6
- compound: "Cl.Cl.Cl.Cl.Cl.Cl.N=C(N)NCCCN(CCCNC(=N)N)CCP(=O)(OCCCCCOP(=O)(CCN(CCCNC(=N)N)CCCNC(=N)N)OCC12CC3CC(CC(C3)C1)C2)OCC12CC3CC(CC(C3)C1)C2 (configuration not stated)"
  CHI: 333
- compound: "CCCCCCCCOP(=O)(CCN(CCCN)CCCN)OCCCCCCCCOP(=O)(CCN(CCCN)CCCN)OCCCCCCCC.Cl.Cl.Cl.Cl.Cl.Cl (configuration not stated)"
  CHI: 38.7
- compound: "CCCC/C=C\\CCOP(=O)(CCN(CCCN)CCCN)OCCCCCCOP(=O)(CCN(CCCN)CCCN)OCC/C=C\\CCCC.Cl.Cl.Cl.Cl.Cl.Cl (configuration not stated)"
  CHI: 33.8
- compound: "Cl.Cl.Cl.Cl.Cl.Cl.NCCCN(CCCN)CCP(=O)(OCCCOP(=O)(CCN(CCCN)CCCN)OCC12CC3CC(CC(C3)C1)C2)OCC12CC3CC(CC(C3)C1)C2 (configuration not stated)"
  CHI: 32.6

Hello, the source for this data is ChEMBL document CHEMBL5120927, in case you need it.
